The measurements presented in this section are drawn from patent US20240190880A1.

Target: ER (Homo sapiens)
Construct: host or cells: T47D and MCF7 human breast cancer cells
Sequence (P03372 1-595): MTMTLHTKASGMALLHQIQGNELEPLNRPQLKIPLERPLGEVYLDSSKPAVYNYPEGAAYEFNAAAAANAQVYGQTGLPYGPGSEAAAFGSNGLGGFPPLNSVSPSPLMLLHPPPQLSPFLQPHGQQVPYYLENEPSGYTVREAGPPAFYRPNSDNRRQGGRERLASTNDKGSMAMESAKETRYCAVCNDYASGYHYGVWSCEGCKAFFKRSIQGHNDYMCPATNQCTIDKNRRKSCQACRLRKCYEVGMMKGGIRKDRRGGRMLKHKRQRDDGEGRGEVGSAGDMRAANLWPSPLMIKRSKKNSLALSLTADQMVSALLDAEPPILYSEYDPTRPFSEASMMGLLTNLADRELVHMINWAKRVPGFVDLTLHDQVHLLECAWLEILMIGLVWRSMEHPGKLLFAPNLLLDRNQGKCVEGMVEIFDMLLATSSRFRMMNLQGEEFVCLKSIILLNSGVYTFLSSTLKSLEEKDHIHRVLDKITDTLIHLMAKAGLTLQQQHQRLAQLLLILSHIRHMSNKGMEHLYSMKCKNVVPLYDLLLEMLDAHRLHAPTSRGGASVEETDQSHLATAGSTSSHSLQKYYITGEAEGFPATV
Assay: ER degradation activity, in-cell western blot analysis in T47D cells
Type: cell-based
Settings: 16 hours, Table A does not say which cell line (T47D or MCF7), read-out: Potency (DC50)
property: DC50

Before answering, review these 2 worked examples.
| molecule | DC50 |
| --- | --- |
| O=C1CCC(N2C(=O)c3cc4c(cc3C2=O)CN(CC(=O)N2CCC3(CC2)CCN(c2ccc([C@@H]5c6ccc(O)cc6CC[C@@H]5c5ccccc5)cc2)C3)C4)C(=O)N1 (mixture of isomers) | 10 to 100 nM |
| C[C@@H]1Cc2c([nH]c3ccccc23)[C@@H](c2c(F)cc(N3CCC(CN4CC(N5Cc6cc7c(cc6C5)C(=O)N(C5CCC(=O)NC5=O)C7=O)C4)CC3)cc2F)N1CC(F)F (some centres unmarked) [E 50] | > 100 nM |

Quick note, DC50 for O=C1CCC(N2C(=O)c3cc4c(cc3C2=O)CN(CC(=O)N2CCC3(CC2)CCN(c2ccc([C@@H]5c6ccc(B(O)O)cc6CC[C@@H]5c5ccccc5)cc2)CC3)C4)C(=O)N1 (mixture of isomers) landed at 10 to 100 nM

Briefly, DC50 measured for C[C@@H]1Cc2c([nH]c3ccccc23)[C@@H](c2c(F)cc(N3CCC(N4Cc5cc6c(cc5C4)C(=O)N(C4CCC(=O)NC4=O)C6=O)CC3)cc2F)N1CC(F)F (some centres unmarked) : > 100 nM

Reported DC50 ( O=C1CCC(N2C(=O)c3cc4c(cc3C2=O)CN(CC2(F)CCN(C(=O)C3CN(c5ccc([C@@H]6c7ccc(O)cc7CC[C@@H]6c6ccccc6)cc5)C3)CC2)C4)C(=O)N1 (some centres unmarked) ) = > 100 nM

Recorded DC50 (molecule C[C@@H]1Cc2c([nH]c3ccccc23)[C@@H](c2c(F)cc(N3CCC(CN4CCC(N5Cc6cc7c(cc6C5)C(=O)N(C5CCC(=O)NC5=O)C7)CC4)CC3)cc2F)N1CC(F)F (some centres unmarked) ): 10 to 100 nM

O=C1CCC(N2C(=O)c3cc4c(cc3C2=O)CN(C(=O)CN2CCC3(CC2)CCN(c2ccc([C@@H]5c6ccc(O)cc6CC[C@@H]5c5ccccc5)cc2)C3)C4)C(=O)N1 (mixture of isomers) yielded DC50 of > 100 nM

Documented DC50 of O=C1CCC(N2C(=O)c3cc4c(cc3C2=O)CN(CCN2CC3(CCN(c5ccc([C@@H]6c7ccc(O)cc7CC[C@@H]6c6ccccc6)cc5)CC3)C2)C4)C(=O)N1 (mixture of isomers) : 10 to 100 nM

// sample C[C@@H]1Cc2c([nH]c3ccccc23)[C@@H](c2c(F)cc(C(=O)N3CCC4(CC3)CC(CN3Cc5cc6c(cc5C3)C(=O)N(C3CCC(=O)NC3=O)C6=O)C4)cc2F)N1CC(F)F (some centres unmarked) , its DC50 was > 100 nM

# DC50 (molecule: C[C@@H]1Cc2cc(O)ccc2[C@@H](c2c(F)cc(N3CCC(CN4CCC(N5Cc6cc7c(cc6C5)C(=O)N(C5CCC(=O)NC5=O)C7=O)CC4)CC3)cc2F)N1CC(F)F (some centres unmarked) ) is > 100 nM

Reported DC50 for O=C1CCC(N2C(=O)c3cc4c(cc3C2=O)CN(CC(=O)N2CC3(CCN(c5ccc([C@@H]6c7ccc(O)cc7CC[C@@H]6c6ccccc6)cc5)CC3)C2)CC4)C(=O)N1 (mixture of isomers) was 10 to 100 nM

The value of DC50 measured for the molecule O=C1CCC(N2Cc3cc4c(cc3C2=O)CN(C(=O)[C@H]2CC[C@@H](N3CC(Oc5ccc([C@@H]6c7ccc(O)cc7CC[C@@H]6c6ccccc6)cc5)C3)CC2)C4)C(=O)N1 (single isomer, unassigned) turned out to be > 100 nM
